pIC50: −log10 of the molar value.
pIC50 values for Focal adhesion kinase 1 (Homo sapiens) compiled from several publications are listed below.
quantity: pIC50

# count of solved cases: 6
CN(c1cccc(CNc2nc(Nc3ccc(F)c(C(N)=O)c3)ncc2C(F)(F)F)c1)S(C)(=O)=O    8.32
Cc1cccc(CNc2nc(Nc3ccccc3)ncc2C(F)(F)F)c1N(C)S(C)(=O)=O    9.22
CN(c1nccnc1CNc1nc(Nc2ccc(C(N)=O)cc2)ncc1C(F)(F)F)S(C)(=O)=O    9.22
NCC1CC(n2cc(-c3ccc4[nH]ccc4c3)c3c(N)ncnc32)C1 (stereo not shown)    5.10
CN1CCc2cccc(Nc3cc(Nc4cnn(C5CCNCC5)c4)ncc3Cl)c2C1=O    6.72
Cc1ccc(CNc2nc(Nc3ccc(C(N)=O)cc3)ncc2C(F)(F)F)c(N(C)S(C)(=O)=O)n1    9.00

I = Cc1cc(Nc2cc(Nc3ccccc3C(=O)NOCCO)c(C(F)(F)F)cn2)n(C)n1
II = CN(CCO)C(=O)c1ccc(Nc2ncc(C(F)(F)F)c(NCc3cccnc3N(C)S(C)(=O)=O)n2)cc1
III = CN1CCc2cccc(Nc3cc(Nc4cc(C5CC5)nn4C)ncc3Cl)c2C1=O
Please list these compounds in decreasing order of pIC50. As an answer, provide the labels arranged in the order called for.
II, III, I
(II: 8.63, III: 8.00, I: 6.21)

P = CNC(=O)c1cc(N2CCN(C)CC2)ccc1Nc1cc(Nc2cn(C)nc2C)ncc1Cl
Q = CN(c1ncccc1CNc1nc(Nc2ccc(S(=O)(=O)Nc3ccccn3)cc2)ncc1C(F)(F)F)S(C)(=O)=O
Returns: the label, P or Q , whose recorded pIC50 is the lower number. To answer, give the label that identifies your chosen option.
P
(P: 5.98, Q: 8.99)
